# Tested on: Tel23 (DNA, G4) TAGGGTTAGGGTTAGGGTTAGGG
# PROTOCOL_NOTES: UV-vis titration, HypSpec2014 fit
# CONDITION: KCl 0.1 M; NaCacodylate 2.5 mM, pH 7.0, 25 °C
Decide by LogK: equal to or exceeding 5 means 1, less means -1.

1. COc1ccc2c(CCCCCc3ccncc3)c3[n+](cc2c1OC)CCc1cc2c(cc1-3)OCO2
1
2. COc1ccc2c(Cc3ccncc3)c3[n+](cc2c1OC)CCc1cc2c(cc1-3)OCO2
-1
3. COc1ccc2c(CCCc3ccncc3)c3[n+](cc2c1OC)CCc1cc2c(cc1-3)OCO2
1
4. COc1ccc2c(CCCCc3ccncc3)c3[n+](cc2c1OC)CCc1cc2c(cc1-3)OCO2
1
5. COc1ccc2c(CCc3ccncc3)c3[n+](cc2c1OC)CCc1cc2c(cc1-3)OCO2
-1

* * *

Quick reference for ΔTm among some compounds
# Tested on: Tel23 (DNA, G4) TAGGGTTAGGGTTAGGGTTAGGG
# PROTOCOL_NOTES: UV melting at 295 nm
# CONDITION: KCl 0.1 M; NaCacodylate 2.5 mM, pH 7.0; ligand 1.40 × 10^-5 M, Tel23 1.38 × 10^-5 M
ENDPOINT: ΔTm (°C)

1) COc1ccc2c(CCCCCc3ccncc3)c3[n+](cc2c1OC)CCc1cc2c(cc1-3)OCO2
5.1
2) COc1ccc2c(CCCCc3ccncc3)c3[n+](cc2c1OC)CCc1cc2c(cc1-3)OCO2
5.9
3) COc1ccc2c(CCCc3ccncc3)c3[n+](cc2c1OC)CCc1cc2c(cc1-3)OCO2
2.3
4) COc1ccc2c(CCc3ccncc3)c3[n+](cc2c1OC)CCc1cc2c(cc1-3)OCO2
4.1
5) COc1ccc2c(Cc3ccncc3)c3[n+](cc2c1OC)CCc1cc2c(cc1-3)OCO2
4.1
